Listed here: items and their measured pIC50.
target-desc: EP2 receptor (Homo sapiens, UniProt P43116)
Construct: SF295 glioblastoma cells express high endogenous EP2 and no EP4
Sequence (P43116 whole entry): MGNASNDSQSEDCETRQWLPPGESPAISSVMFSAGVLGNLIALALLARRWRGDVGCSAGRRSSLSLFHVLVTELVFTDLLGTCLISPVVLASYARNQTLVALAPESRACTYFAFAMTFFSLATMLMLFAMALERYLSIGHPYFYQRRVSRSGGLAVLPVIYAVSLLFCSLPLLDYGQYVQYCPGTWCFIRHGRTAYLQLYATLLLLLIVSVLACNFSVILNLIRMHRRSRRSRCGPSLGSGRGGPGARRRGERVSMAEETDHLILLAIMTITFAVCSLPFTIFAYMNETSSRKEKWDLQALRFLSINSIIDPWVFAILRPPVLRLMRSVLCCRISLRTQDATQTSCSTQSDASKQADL
assay: hEP2 cAMP assay (SF295 glioblastoma cells, HTRF cAMP, PGE2 stimulation)
test-settings: antagonistic activity
In plain terms, pIC50 is the concentration in mol/L turned into minus its base-10 logarithm.

// worked examples, pIC50 included
compound | pIC50
CCOc1cc(-c2cc(NCCc3c(C)oc4c(OC)cc(Cl)cc34)ncn2)sc1C(=O)O [Example 38] | 7.92
CCCc1cc(-c2cc(NCCc3c(C#N)sc4c(C)cc(F)cc34)ncn2)ccc1C(=O)O [Example 167] | 7.96
Cc1sc2c(C)cc(F)cc2c1CCNc1cc(-c2cc(C(F)(F)F)c(C(=O)O)s2)ncn1 [Example 46] | 7.51
CCOc1cc(-c2cc(NCCc3c(C)sc4c(OC)ccc(Cl)c34)ncn2)sc1C(=O)O [Example 30] | 8.10
Cc1oc2c(Cl)cccc2c1CCNc1cc(-c2ccc(C(=O)O)c(OC3CCC3)c2)ncn1 [Example 137] | 7.31

Provide one value: measured pIC50 of COc1cc(F)c(F)c2c(CCNc3cc(-c4cc(F)c(C(=O)O)c(OC5CCC5)c4)ncn3)c(C)oc12 [Example 150]
7.01

Report pIC50 for CSc1cc(-c2cc(NCCc3c(C)sc4c(C)c(F)ccc34)ncn2)ccc1C(=O)O [Example 21]
7.62

Tell us which pIC50 value is on record for Cc1cc(-c2cc(NCCc3c(C)oc4c(C)cc(Cl)cc34)ncn2)sc1C(=O)O [Example 4]
7.48

Tell me measured pIC50 for CCOc1cc(-c2cc(NCCc3csc4ccccc34)ncn2)sc1C(=O)O [Example 33] please.
7.77
